Field: melting point. Provide a value for each of the compounds that follow.

# input compound: O=C1CCC(N2C(=O)c3cccc(OCc4cc(Cl)cc(Cl)c4)c3C2=O)C(=O)N1 (centres unmarked) ; wanted: its melting point
278 to 280 °C

I would be grateful if you could share the reported melting point for O=C1CCC(N2C(=O)c3cccc(OCc4cc5c(F)cccc5s4)c3C2=O)C(=O)N1 (centres unmarked) .
264 to 266 °C

Which melting point value is on record for Cc1cccc(COc2cccc3c2C(=O)N(C2CCC(=O)NC2=O)C3=O)c1 (centres unmarked) ?
195 to 197 °C

Request the reported melting point associated with O=C1CCC(N2C(=O)c3cccc(OCc4ccc5ccccc5n4)c3C2=O)C(=O)N1 (centres unmarked)
254 to 256 °C

Requested read-out: melting point. Entry: O=C1CCC(N2C(=O)c3cccc(OCc4ccc(Cl)c(Cl)c4)c3C2=O)C(=O)N1 (centres unmarked)
245 to 247 °C

Fill blank: measured melting point of the compound O=C1CCC(N2C(=O)c3cccc(OCc4ccc5ccccc5c4)c3C2=O)C(=O)N1 (centres unmarked) is ____.
> 260 °C

Entry O=C1CCC(N2C(=O)c3cccc(OCc4ccco4)c3C2=O)C(=O)N1 (centres unmarked) : reported melting point = ?
184 to 186 °C

Param item = O=C1CCC(N2C(=O)c3cccc(OCc4cccc(Cl)c4)c3C2=O)C(=O)N1 (centres unmarked) ; retrieve measured melting point.
249 to 251 °C

Report melting point for O=C1CCC(N2C(=O)c3cccc(OCc4ccc(Cl)cc4)c3C2=O)C(=O)N1 (centres unmarked) please.
239 to 241 °C

Using the record for O=C1CCC(N2C(=O)c3cccc(OCc4cccc(Br)c4)c3C2=O)C(=O)N1 (centres unmarked) , report its melting point.
246 to 248 °C

Bench note: what melting point did CS(=O)(=O)c1ccc(COc2cccc3c2C(=O)N(C2CCC(=O)NC2=O)C3=O)cc1 (centres unmarked) show?
293 to 295 °C

Param item = O=C1CCC(N2C(=O)c3cccc(OCc4cc5ccccc5o4)c3C2=O)C(=O)N1 (centres unmarked) ; retrieve measured melting point.
234 to 236 °C

What does the data say about its melting point? Entry: COc1ccc(COc2cccc3c2C(=O)N(C2CCC(=O)NC2=O)C3=O)cc1 (centres unmarked)
178 to 180 °C

melting point for O=C1CCC(N2C(=O)c3cccc(OCc4cnc5ccccc5c4)c3C2=O)C(=O)N1 (centres unmarked) ?
263 to 265 °C

Any idea what its melting point is? The compound is COc1cccc(COc2cccc3c2C(=O)N(C2CCC(=O)NC2=O)C3=O)c1 (centres unmarked)
197 to 201 °C

Which value of melting point has been reported for O=C1CCC(N2C(=O)c3cccc(OCc4cccc(F)c4)c3C2=O)C(=O)N1 (centres unmarked) in the records?
241 to 243 °C

Need melting point of O=C1CCC(N2C(=O)c3cccc(OCc4cc5ccccc5s4)c3C2=O)C(=O)N1 (centres unmarked) , thanks.
247 to 249 °C
